Test system: MS2 coat protein
Test: apparent KD of MS2 coat protein; higher = weaker reporter binding
Settings: Eterna round: R107; input ligand: theophylline 20 uM
Binary classification by apparent KD of MS2 coat protein, with 60 nM as an inclusive lower bound for Fulfilled; all other cases are Not fulfilled.

GGGCGAGUGGAGCGGCGUGCUCCGCUCCGUCGAGGACCGGUACGGCCGCCACUCGACAUGAGGAUCACCCAUGUGCGAGCUCGCG [#1 Exclusion - Tryptophan A Attempt #13 (HarryS)]: Not fulfilled
AACGUAUACAGAAGGAGCGUGAUUUAUAUUACUCAUUCAUAUACAUGAGGAUCACCCAUGUCACAGGUAGGUCGCUGUAUUCGUA [JR_ExcArginiB_Sub021]: Fulfilled
UAAAUAUUACUGGGUAAGGUAUAAAUAGAUACCAGCCAGAUAACUGGCCCUUGGCAGCUAAACAUGAGGAUCACCCAUGUAUAAU [TheoAS 20 #OpenEnded #Ms2Late]: Not fulfilled
CUCGUCAACUCGGCCGCCACUGACGUGUGGUCAGGCCUGUAGAAACACAUGAGGAUCACCCAUGUCAGGACCGGGAGCUUUAUUA [theeternabot_exclusion_MS2_Trp_B_26]: Fulfilled
AACAUGAGGAUCUUCCUUAAGUGAACUGAAGGAGCGCCAGAUAUGGCAGGUAGGUCGCAGCGAACAUGAGGAUCACCCAUGUUAA [Arg A Ex t3]: Not fulfilled
UUGGUACGACAGCUCAUAUAAGCAUGUGAUACCAGACUGGAAACAGUCCCUUGGCAGCACUUUACAUGAGGAUCACCCAUGUCGG [EThA NP+V+V2 #3 +-Same Structure]: Fulfilled
GGCGCGAGCCAACAUGAGGAUCACCCAUGUCGAGGACCGGUACGGCCGCCACUCGAACGAGUGAAGCGCGCGCGCGCGCGCGCGC [Uaa]: Fulfilled
UAUCCACAUGAGGAUCACCCAUGUAGGGAAGGAGCGGUGAUUUCACCAGGUAGGUCGCCUUACUGAGGAGAACCGGUGGAAUCGU [Exclusion - Arginine A (Freestyle 30)]: Not fulfilled
CAUACUUGAUCCUAUGAGCCUAUUUGUGAUACCAGCAUCUAAAUUUGCCCUUGGCAGCACUAACAUGAGGAUCACCCAUGUUAUA [JR_Nu_ExcTheophyA_Sub028]: Not fulfilled
CUACAUUUGUAGAAACCGGUCACCAUUACUCGAGGACCGGUACGGCCGCCACUCGUGUCAUGUGAUACAUGAGGAUCACCCAUGU [Tryptophan A 10]: Not fulfilled
AUAAUGGGUAUCGGAUUAUCAUGAUAUGAUACCAGAUACUUAGAUAUCCCUUGGCAGCAUGAGGACAUGAGGAUCACCCAUGUAU [#04 Exclusion-TheophyllineA]: Not fulfilled
AAAAUCCUACCUGAGGAUCACCCGGGUGAAGGAGCGCCCGAAAGGGCAGGUAGGUCGCACCUGAGGAUCACCCUGGUAACCUAAA [ArgEX 12 #DoubleMS2 #OpenEnded #AlternativeMS2]: Fulfilled
ACAUGAGGAUCACCCAUGUGCCGUCUUGAUACCAGACCCGAAGUAGUCCCUUGGCAGCAACUACGUGACGGUCGCCCAUGUGUAG [rremullin]: Not fulfilled
GAAGAUCCGUAAGAUACCAGUGCAGAUCGGCACAUGAGGAUCACCCAUGUAAAGCAAGAACACCCUUGGCAGCUUUCGUAACAAC [theeternabot_sameState_MS2_Theo_B_15]: Fulfilled
UCGUGAGUUUCGGAUACCAGUGUUGUCGAUACAUGAGGAUCACCCAUGUUAGAGGAUGUACACCCUUGGCAGCCGGCUGUGGCGG [lplmullin]: Not fulfilled
GAUGAACUAUAUGAUACCAGACAACAUGAGGAUCACCCAUGUGAUUGUCGUCCUCUGCCUGUCCCUUGGCAGCGUAUAGUUUAUC [XTheo B #16]: Fulfilled
ACUAGUUGUGCAGAUACCAGAUAUGAGGAUCACCCAUAUUUGGGAUGUUCGCAUCUUCCUGUCCCUUGGCAGCUGUACAUCUAGA [Omei Theo B Exc v7]: Fulfilled
AACAGUUGGUCGGCCGCCACUACAUGAGGAUCACCCAUGUAGCGCGUUCUGCUCCAGGGCUCAUCUAGGACCGGGACACGAGUGU [Raa]: Not fulfilled
GGCACGUACGGAAGGAGCGACUGUUCAACGUGGGUACAUGAGGAUCACCCAUGUCUCCGCAGUCAGGUAGGUCGCCGUACGUGCC [EAB NP+V+V2 #20]: Not fulfilled
GAGCGCGUGGACUGGCGUGCUCCGCUCCGUCGAGGACCGGUACGGCCGCCACUCGACAUGAGGAUCACCCAUGUGCGCGCUCGCU [#1 Exclusion - Tryptophan A Attempt #23 (HarryS)]: Fulfilled
UCCUCCUCCGCAAGGAGGAGGAGUUGCGAUACCAGCACGGUAACGUGCCCUUGGCAGCGCACAUGAGGAUCACCCAUGUCAUGUU [#1 Exclusion - Theophylline A Attempt #11 (HarryS)]: Not fulfilled
